Hey, just so you know, these numbers are from patent US10183914B2.

- Tested on: Zea mays
- ASSAY OVERVIEW: Pre-emergence herbicidal effect and crop plant compatibility
- Format: in vivo
- STATED CONDITIONS: 80 g/ha, 3 weeks
Answer each item with its documented ZEAMX herbicidal activity in percent.
Report as: number unit

// field: ZEAMX herbicidal activity in percent; key: `CC(=O)c1cnc(N[C@H]2c3cc(C)ccc3C[C@@H]2C)nc1C` ; value = 0%

// field: ZEAMX herbicidal activity in percent; key: Cc1ccc2c(c1)[C@H](Nc1ncc3c(n1)CCCC3=O)[C@@H](C)C2 [2.118] ; value = 0%

// field: ZEAMX herbicidal activity in percent; key: Cc1ccc2c(c1)[C@H](Nc1ncc3c(n1)CC(C(C)C)CC3=O)[C@@H](C)C2 (stereo partly drawn) ; value = 0%

====

- Tested on: Triticum aestivum (spring)
- ASSAY OVERVIEW: Pre-emergence herbicidal effect and crop plant compatibility
- Assay type: in vivo
- STATED CONDITIONS: 320 g/ha, 3 weeks
Answer each item with its documented TRZAS herbicidal activity in percent.
Report as: number unit

// field: TRZAS herbicidal activity in percent; key: CC(=O)c1cnc(NC2CCOc3c(C)cc(F)cc32)nc1C (racemic) [1.87] ; value = 0%

// field: TRZAS herbicidal activity in percent; key: CC(C)C1CC(=O)c2cnc(N[C@@H]3CCc4ccccc43)nc2C1 (stereo partly shown) [2.103] ; value = 0%

// field: TRZAS herbicidal activity in percent; key: CC(=O)c1cnc(NC2CCOc3c(C)cccc32)nc1 (racemic) [1.7] ; value = 0%

// field: TRZAS herbicidal activity in percent; key: Cc1cccc2c1OCC[C@H]2Nc1ncc2c(n1)CCCC2=O [2.100] ; value = 10%

// field: TRZAS herbicidal activity in percent; key: Cc1ccc2c(c1)[C@H](Nc1ncc3c(n1)COCC3=O)[C@@H](C)C2 [2.97] ; value = 20%

// field: TRZAS herbicidal activity in percent; key: CC1CCc2ccccc2C1Nc1ncc2c(n1)CC(C)(C)CC2=O (racemic) [2.95] ; value = 0%

// field: TRZAS herbicidal activity in percent; key: CC(=O)c1cnc(N[C@@H]2CCCc3ccccc32)nc1C [1.82] ; value = 0%

// field: TRZAS herbicidal activity in percent; key: O=C1CCCc2nc(N[C@@H]3CCCc4c(F)cccc43)ncc21 [2.13] ; value = 10%

// field: TRZAS herbicidal activity in percent; key: CC(=O)c1cnc(NC2c3ccccc3CCC2C)nc1 (racemic) [1.20] ; value = 20%

// field: TRZAS herbicidal activity in percent; key: O=C1CCCc2nc(N[C@@H]3CCOc4c(F)cccc43)ncc21 [2.19] ; value = 0%

====

Answer each item with its documented post-emergence efficacy TRZAS.
- Test system: Triticum aestivum (spring)
- ASSAY OVERVIEW: Post-emergence herbicidal effect and crop plant compatibility
- Assay type: in vivo
- STATED CONDITIONS: 320 g/ha, visual scoring after about 3 weeks
- Source text: Seeds of monocotyledonous and dicotyledonous weed and crop plants are laid out in sandy loam in wood-fiber pots, covered with soil and cultivated in a greenhouse under good growth conditions. […] After the trial plants have been left to stand in a greenhouse under optimal growth conditions for about 3 weeks, the efficacy of the formulations is scored visually in comparison to untreated controls (herbicidal action in percent (%): 100% efficacy=the plants have died, 0% efficacy=like control plants).
Number only, in %; omit the unit.

// field: post-emergence efficacy TRZAS; key: CC1(C)CC(=O)c2cnc(N[C@@H]3CCCc4ccccc43)nc2C1 [2.25] ; value = 20

// field: post-emergence efficacy TRZAS; key: CC(=O)c1cnc(N[C@@H]2CCCc3cc(F)ccc32)nc1C [1.88] ; value = 20

// field: post-emergence efficacy TRZAS; key: Cc1ccc2c(c1)[C@H](Nc1ncc3c(n1)CC(c1ccc(F)cc1)CC3=O)[C@@H](C)C2 (some centres unmarked) [2.52] ; value = 0

// field: post-emergence efficacy TRZAS; key: Cc1ccc2c(c1)[C@H](Nc1ncc3c(n1)CC(C)CC3=O)[C@@H](C)C2 (some centres unmarked) [2.44] ; value = 0

// field: post-emergence efficacy TRZAS; key: O=C1CCCc2nc(N[C@@H]3CCOc4c(F)cccc43)ncc21 [2.19] ; value = 20

====

Answer each item with its documented ZEAMX herbicidal activity in percent.
- Test system: Zea mays
- ASSAY OVERVIEW: Pre-emergence herbicidal effect and crop plant compatibility
- Format: in vivo
- STATED CONDITIONS: 320 g/ha, 3 weeks
Number only, in %; omit the unit.

Hey, Zea mays data for `CC(=O)c1cnc(N[C@H]2c3cc(C)ccc3C[C@@H]2C)nc1C` : ZEAMX herbicidal activity in percent came out at 0

Hey, Zea mays data for CC(=O)c1cnc(NC2c3ccccc3CCC2C)nc1 (racemic) : ZEAMX herbicidal activity in percent came out at 0

Hey, Zea mays data for Cc1ccc2c(c1)[C@H](Nc1ncc3c(n1)CC(C(C)C)CC3=O)[C@@H](C)C2 (stereo partly shown) : ZEAMX herbicidal activity in percent came out at 0

Hey, Zea mays data for `CC(=O)c1cnc(N[C@@H]2CCCc3cc(F)ccc32)nc1C` : ZEAMX herbicidal activity in percent came out at 0

Hey, Zea mays data for `CC(=O)c1cnc(N[C@@H]2CCc3c(F)cccc32)nc1` : ZEAMX herbicidal activity in percent came out at 20

Hey, Zea mays data for O=C1CC(c2ccc(F)cc2)Cc2nc(N[C@@H]3CCCc4ccccc43)ncc21 (stereo partly shown) : ZEAMX herbicidal activity in percent came out at 20

Hey, Zea mays data for CC(C)C1CC(=O)c2cnc(N[C@@H]3CCCc4ccccc43)nc2C1 (stereo partly shown) : ZEAMX herbicidal activity in percent came out at 0

Hey, Zea mays data for `O=C1CCCc2nc(N[C@@H]3CCOc4c(F)cccc43)ncc21` : ZEAMX herbicidal activity in percent came out at 10

Hey, Zea mays data for CC1(C)CC(=O)c2cnc(NC3CCOc4ccccc43)nc2C1 (racemic) : ZEAMX herbicidal activity in percent came out at 0

Hey, Zea mays data for `CC(=O)c1cnc(N[C@@H]2CCc3ccccc32)nc1C` : ZEAMX herbicidal activity in percent came out at 0

====

Answer each item with its documented post-emergence efficacy TRZAS.
- Test system: Triticum aestivum (spring)
- ASSAY OVERVIEW: Post-emergence herbicidal effect and crop plant compatibility
- Format: in vivo
- STATED CONDITIONS: 320 g/ha, visual scoring after about 3 weeks
Report as: number unit

Hey, Triticum aestivum (spring) data for O=C1CC(C(F)(F)F)Cc2nc(N[C@@H]3CCCc4ccccc43)ncc21 (some centres unmarked) [2.96] : post-emergence efficacy TRZAS came out at 20%

Hey, Triticum aestivum (spring) data for CC1CC(=O)c2cnc(N[C@@H]3CCCc4ccccc43)nc2C1 (some centres unmarked) [2.26] : post-emergence efficacy TRZAS came out at 0%

Hey, Triticum aestivum (spring) data for O=C1CC(c2ccc(F)cc2)Cc2nc(N[C@@H]3CCCc4ccccc43)ncc21 (some centres unmarked) [2.92] : post-emergence efficacy TRZAS came out at 10%

Hey, Triticum aestivum (spring) data for Cc1ccc2c(c1)[C@H](Nc1ncc3c(n1)COCC3=O)[C@@H](C)C2 [2.97] : post-emergence efficacy TRZAS came out at 0%

Hey, Triticum aestivum (spring) data for O=C1CCCc2nc(N[C@@H]3CCCc4c(F)cccc43)ncc21 [2.13] : post-emergence efficacy TRZAS came out at 20%

====

Answer each item with its documented post-emergence efficacy PHBPU.
- Test system: Ipomoea purpurea
- ASSAY OVERVIEW: Post-emergence herbicidal effect
- Format: in vivo
- STATED CONDITIONS: 320 g/ha (dose by row order of upper half), scoring after about 3 weeks
Number only, in %; omit the unit.

// field: post-emergence efficacy PHBPU; key: `Cc1ccc2c(c1)[C@H](Nc1ncc3c(n1)CC(C)(C)CC3=O)[C@@H](C)C2` ; value = 100

// field: post-emergence efficacy PHBPU; key: `O=C1CCCc2nc(N[C@@H]3CCCc4ccccc43)ncc21` ; value = 80

// field: post-emergence efficacy PHBPU; key: CC1(C)CC(=O)c2cnc(NC3CCOc4ccccc43)nc2C1 (racemic) ; value = 80

// field: post-emergence efficacy PHBPU; key: `Cc1ccc2c(c1)[C@H](Nc1ncc3c(n1)CCCC3=O)[C@@H](C)C2` ; value = 100

// field: post-emergence efficacy PHBPU; key: `O=C1CCCc2nc(N[C@@H]3CCCc4c(F)cccc43)ncc21` ; value = 100

// field: post-emergence efficacy PHBPU; key: `CC(=O)c1cnc(N[C@H]2c3cc(C)ccc3C[C@@H]2C)nc1C` ; value = 90

// field: post-emergence efficacy PHBPU; key: `CC1(C)CC(=O)c2cnc(N[C@@H]3CCCc4ccccc43)nc2C1` ; value = 90

// field: post-emergence efficacy PHBPU; key: O=C1CC(C(F)(F)F)Cc2nc(N[C@@H]3CCCc4ccccc43)ncc21 (some centres unmarked) ; value = 80

// field: post-emergence efficacy PHBPU; key: Cc1ccc2c(c1)[C@H](Nc1ncc3c(n1)CC(C)CC3=O)[C@@H](C)C2 (some centres unmarked) ; value = 100

// field: post-emergence efficacy PHBPU; key: `O=C1CCCc2nc(N[C@@H]3CCOc4c(F)cccc43)ncc21` ; value = 80

// field: post-emergence efficacy PHBPU; key: `Cc1ccc2c(c1)[C@H](Nc1ncc3c(n1)COCC3=O)[C@@H](C)C2` ; value = 100
